- Test system: HCT-15 colon
- ASSAY: NCI tumour cell line growth inhibition, 48 h
So basically: TGI at 40 µM or higher? That is TRUE. Lower than 40 µM? That is FALSE.

                                    molecule           tgt  class_assignment
 0  COc1ccc(C(=O)/C=C/c2c(C(F)(F)F)nc3ccccn23)cc1OC  HCT-15 colon              TRUE
 1         O=C1NC(NNc2ccccc2)=N/C1=C\c1ccco1  HCT-15 colon             FALSE
 2  CN(CCO)c1nc(=O)c2c(n1C1OC(CO)C(O)C(O)C1O)CCCC2 (configuration not stated)  HCT-15 colon              TRUE
 3  Clc1ccc2c(c1)CC1C[N+]3=C(CCCCC3)C1=C2 (configuration not stated)  HCT-15 colon              TRUE
 4  CCCCCCc1cc2cc(-c3cn4ccccc4n3)c(=O)oc2cc1O  HCT-15 colon             FALSE
 5  CCCCCCCC(=O)OC(COC(=O)Cc1ccccc1)COC(=O)C(C)(C)C (configuration not stated)  HCT-15 colon              TRUE
 6  [O-][N+]1=C(c2ccccc2)/C(=C2/C(c3ccccc3)=[N+]([O-])c3ccccc32)Cc2ccccc21  HCT-15 colon             FALSE
 7  O=C(N/N=C/c1cc(Cl)cc(Cl)c1[OH2+])c1ccncc1.O=S(=O)([O-])[O-].[Fe+2]  HCT-15 colon             FALSE
 8  COc1ccc(Cl)cc1Nc1nc(C(F)(F)F)ccc1C(=O)N/N=C/c1ccccc1Cl  HCT-15 colon              TRUE
 9      CC(=O)c1ccc(Nc2nc3ccccc3c3occc23)cc1  HCT-15 colon             FALSE
10        CC1=C(N2CC2)C(=O)C(C)=C(N2CC2)C1=O  HCT-15 colon             FALSE
11                O=C(C(=O)c1cccnc1)c1cccnc1  HCT-15 colon              TRUE
12      Cc1cc(C(=O)CC(Cl)=C(Cl)Cl)c(Cl)cc1Cl  HCT-15 colon              TRUE
13  CC(c1ccccc1)n1c2ccccc2c2c(N)ncnc21 (configuration not stated)  HCT-15 colon              TRUE
14                      Cc1ccc(C(CCO)CCO)nc1  HCT-15 colon              TRUE
15  O=[N+]([O-])c1ccc(C2NC(=S)NC3c4cc([N+](=O)[O-])ccc4CCCC23)cc1 (configuration not stated)  HCT-15 colon              TRUE
16   CCN(CC)CCC(=O)Nc1ccc2sc3ccccc3c(=O)c2n1  HCT-15 colon              TRUE
17  COc1ccc2nc3c([N+](=O)[O-])ccc4c3c(c2c1)N=CN4CCN(C)C  HCT-15 colon             FALSE
18  O=C(NCCCN1CCN(CCCNC(=O)c2cc(-c3ccccc3)nc3ccccc23)CC1)c1cc(-c2ccccc2)nc2ccccc12  HCT-15 colon              TRUE
19  Cn1c2ccccc2c(=NNc2ccc(S(=O)(=O)N=C(N)N)cc2)c2ccccc21  HCT-15 colon             FALSE
20         COc1ccc(OC)c(CCc2ccccc2CC(=O)O)c1  HCT-15 colon              TRUE
21  CC[C@H](C)C(=O)O[C@H]1CCC=C2C=C[C@H](C)[C@H](CC[C@@H]3C[C@@H](O)CC(=O)O3)[C@H]21  HCT-15 colon              TRUE
22  CC(/C=C1\CCC(CN(C)C)C1=O)c1cccc(Br)c1 (configuration not stated)  HCT-15 colon             FALSE
23  O=c1[nH][nH]c(=O)c2c(O)c(-c3ccccc3)ncc12  HCT-15 colon              TRUE
24  CC(=O)C(C(=O)C(=O)Nc1cc(Cl)c(Cl)cc1Cl)c1csc(N)n1 (configuration not stated)  HCT-15 colon              TRUE
25  Cc1cnc2c(c1)C(=O)N(c1ccc(Br)cc1)S2(=O)=O  HCT-15 colon              TRUE
26  CCN(CC)CCCNc1nccc2c(C)c3[nH]c4ccncc4c(=O)c3cc12  HCT-15 colon              TRUE
27  COc1cccc(C2c3cc4c(cc3OC(NNC(N)=O)C2C)OCO4)c1OC (configuration not stated)  HCT-15 colon              TRUE
28  CCOC1Oc2ccccc2C(=O)/C1=C\Nc1ccc(C(=O)O)c(O)c1 (configuration not stated)  HCT-15 colon              TRUE
29         O=C(O)c1ccccc1/C=N\N(CCO)C1=NCCN1  HCT-15 colon              TRUE
30               CC(=O)OC(C)(C)C[N+](=O)[O-]  HCT-15 colon              TRUE
31  Cl.[O-]c1cccc2cccnc12.[O-]c1cccc2cccnc12.[O-]c1cccc2cccnc12.[O-]c1cccc2cccnc12.[Ti+4]  HCT-15 colon             FALSE
32  CC1=NC(=O)CNN1C1=NNC2(C(=O)N1)c1ccccc1-c1ccccc12  HCT-15 colon              TRUE
33  CCc1c2c(nc3ccc(OC(=O)OCc4ccc(B5OC(C)(C)C(C)(C)O5)cc4)cc13)-c1cc3c(c(=O)n1C2)COC(=O)[C@]3(O)CC  HCT-15 colon              TRUE
34  CCCCNP1(NCCCC)=NP(NCCCC)(NCCCC)=NP(NCCCC)(NCCCC)=NP(NCCCC)(NCCCC)=N1  HCT-15 colon              TRUE
35  CC(C)C1CCC(=O)CC1CCCCC1CC(=O)CC1O[Si](C)(C)C(C)(C)C (configuration not stated)  HCT-15 colon             FALSE

* * *

- Test system: HOP-92 NSCLC
- ASSAY: NCI tumour cell line growth inhibition, 48 h; in the data active = GI50 below about 0.43 µM; inactive = the rest
Outcome codes: true (1) = active, false (0) = inactive

COMPOUND	CLASS_ASSIGNMENT
O=C(N/N=C/c1cc(Cl)cc(Cl)c1[OH2+])c1ccncc1.O=S(=O)([O-])[O-].[Fe+2]	false (0)
O=C(Nc1cccc(-n2ccc3c(NC(=O)c4ccccc4)nccc32)c1)c1ccc(Cl)c(Cl)c1	true (1)
COc1ccc2[nH]cc(C3(c4c[nH]c5ccc(OC)cc45)C(=O)Nc4ccc(Cl)cc43)c2c1	false (0)
COc1ccc2c(c1)C(=O)/C(=C/c1cccc(OCC(=O)c3ccc([N+](=O)[O-])cc3)c1)CO2	false (0)
Fc1ccc(-c2c(-c3ccncc3)[nH]c3cccnc23)cc1	false (0)
Cc1cc2oc(=O)cc(OC/C=C3/CCC(=O)O3)c2cc1C	false (0)
CCOC1Oc2ccccc2C(=O)/C1=C\Nc1ccc(C(=O)O)c(O)c1 (centres undefined)	false (0)
NS(=O)(=O)c1ccc(-n2nc(-c3ccccc3)cc2-c2cc(O)ccc2O)cc1	false (0)
CC[C@H](C)[C@H](NC(=O)[C@H]1CCCCN1C)C(=O)N(C)[C@H](C[C@@H](OC(C)=O)c1nc(C(=O)NC23C4C5C2C2C3C4C52C(=O)OC)cs1)C(C)C (some centres undefined)	false (0)

* * *

Each record here notes measured TGI.
- Test system: UO-31 renal
- ASSAY: NCI tumour cell line growth inhibition, 48 h

MOLECULE	RELATION	TGI [µM]
CN(CCCNC(=O)c1cn(C)c2c1ccc1ccccc12)CCCNC(=O)c1cn(C)c2c1ccc1ccccc12	=	2.75
Clc1ccc2c(c1)CC1C[N+]3=C(CCCCC3)C1=C2 (stereo not given)	>	100
CC(C)NC(=O)OCc1c(COC(=O)NC(C)C)c(-c2cc[n+](COC(=O)Cc3ccccc3)cc2)n2c1CCC2	>	100
CCCCCCCC(=O)OC(COC(=O)Cc1ccccc1)COC(=O)C(C)(C)C (stereo not given)	>	100
CC(C)C1CCC(=O)CC1CCCCC1CC(=O)CC1O[Si](C)(C)C(C)(C)C (stereo not given)	=	20.2
C=C(C)C1CC=C(C)C(O)([C@@]2(O)C[C@H](C(=C)C)CC=C2C)C1 (stereo not given in full)	=	55.9
CCCCCCCCCCCCCP(=O)(OC)OC	=	29.8
CC(=O)Oc1ccc(C)c2c1[C@H]1CC[C@]3(C)[C@@H](OC(C)=O)CC[C@H]3[C@@H]1CC2	>	100
COc1ccc2[nH]cc(Cc3c[nH]c4ccc(OC)cc34)c2c1	>	100
Cc1cnc(-c2ccc(-c3ccc(NC(=O)Nc4cccc(C(F)(F)F)c4)cc3F)c3c2C(=O)NC3)[nH]1	>	50.5
COc1ccccc1-c1ccc2c(N)c(C(=O)c3ccc4c(c3)OCO4)sc2n1	=	16.7
O=C(N/N=C/c1cc(Cl)cc(Cl)c1[O-])c1ccccc1O.O=C(N/N=C/c1cc(Cl)cc(Cl)c1[O-])c1ccccc1O.[Fe+2]	=	48.7
COc1cc2cnc3c4cc(O)ccc4ccc3c2cc1OC	>	100
COC(=O)/C=C(C)/C=C/c1c(C)c(C(C)=O)c(C)n1C	>	100
O=C1/C=C/[C@@H](O)[C@@H]2C[C@@H](O)C[C@H]2/C=C/CCC[C@H](CCc2ccc(NC(=S)Nc3ccc4c(c3)C(=O)OC43c4ccc(O)cc4Oc4cc(O)ccc43)cc2)O1	>	100
CCN(CC)CCNc1ccc(N=Nc2cnc3ccccc3c2)c2ccccc12	=	3.05
CCCCCCCCCCCCCC(=O)NO	=	25.3
COc1ccccc1NC(=O)C(=O)C(c1cnc2ccc([N+](=O)[O-])cc2n1)[N+](=O)[O-] (stereo not given)	>	100
COc1cc2c(cc1OC)-c1cc3cc(OC)c(OC)cc3c(C)[n+]1CC2 (tested in a mixture with another compound)	>	100
Cn1cc(-c2csc(-c3cn(CCCN4CCCCC4)c4ccc(Br)cc34)n2)c2cccnc21	=	2.89
S=C1C(CCCOCc2ccccc2)C2CCCC23CC2(CCN13)OCCS2 (stereo not given)	>	10
CN(C)C1(N(C)C)Oc2c(c(=O)n(C)c(=O)n2C)C(c2ccc(F)cc2)C1(F)F (stereo not given)	>	100
C=C1C(=O)O[C@H]2[C@H]1CC/C(CNC(=O)C(C)c1ccc(CC(C)C)cc1)=C\CC[C@@]1(C)O[C@@H]21 (stereo not given in full)	=	2.6
O=C(CO)CC(=O)C(=O)Nc1cccc(C(F)(F)F)c1	>	100
CC[C@@]1(O)C(=O)OCc2c1cc1n(c2=O)Cc2cc3cccc(N)c3nc2-1	>	100
